# experimental-target: Melanocortin receptor 3 (Homo sapiens, UniProt P41968)
# Sequence (P41968 whole entry): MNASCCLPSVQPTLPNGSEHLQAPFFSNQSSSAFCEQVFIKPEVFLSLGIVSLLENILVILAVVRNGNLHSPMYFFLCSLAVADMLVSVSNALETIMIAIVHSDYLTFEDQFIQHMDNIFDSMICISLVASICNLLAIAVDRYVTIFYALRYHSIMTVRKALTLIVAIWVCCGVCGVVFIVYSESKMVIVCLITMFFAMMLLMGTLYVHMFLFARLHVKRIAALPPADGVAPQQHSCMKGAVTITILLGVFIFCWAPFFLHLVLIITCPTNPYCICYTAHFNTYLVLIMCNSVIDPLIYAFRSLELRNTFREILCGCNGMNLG
*1 amine or outer side, *2 acyl side, *3 side chain or, on linkers, in order; H or OH if unused. Where a SMILES comes first, the peptide text is derived from it. Bridges are numbered along the chain shown (N, C = ends). [ ]: non-standard residue; d: D form. mXylylene = c1cc(C[*:1])cc(C[*:2])c1; NMeR = CN[C@@H](CCCNC(=N)N)C(=O)O
recorded-endpoint: Ki (µM)
One number for each entry, in µM.

Request the reported Ki associated with CC[C@H](C)[C@@H]1NC(=O)[C@@H]2CCCN2C(=O)[C@H](Cc2c[nH]c3ccccc23)NC(=O)[C@H](CCCNC(=N)N)N(C)C(=O)[C@H](Cc2ccccc2)NC(=O)[C@H](Cc2cnc[nH]2)NC(=O)[C@H]([C@@H](C)O)NC(=O)[C@@H](NC(C)=O)CSCc2cccc(c2)CSC[C@@H](C(N)=O)NC1=O (Ac-CTHF[NMeR]WPIC-NH2; linker 1-9 via mXylylene)
9.12

###

# Species on record: Homo sapiens
# test-details: Selectivity ratio of EC50 for human MC3R to EC50 for human MC1R
*1 amine or outer side, *2 acyl side, *3 side chain or, on linkers, in order; H or OH if unused. Where a SMILES comes first, the peptide text is derived from it. Bridges are numbered along the chain shown (N, C = ends). [ ]: non-standard residue; d: D form. Nle = CCCC[C@H](N)C(=O)O; X7 = C(C[*:1])C[*:2]
recorded-endpoint: Ratio EC50
Answers are plain numbers.

Request the reported Ratio EC50 associated with CCCC[C@@H]1NC(=O)[C@@H]2CSCCCSC[C@H](NC(=O)[C@H](CCCNC(=N)N)NC(=O)[C@H](CC(=O)O)NC(=O)[C@H](Cc3c[nH]c4ccccc34)NC(=O)[C@H](CCCNC(=N)N)NC(=O)[C@H](Cc3ccccc3)NC(=O)[C@H](Cc3cnc[nH]3)NC(=O)CNC1=O)C(=O)N[C@@H](Cc1cnc[nH]1)C(=O)N[C@@H](Cc1ccccc1)C(=O)N[C@@H](CCCNC(=N)N)C(=O)N[C@@H](Cc1c[nH]c3ccccc13)C(=O)N[C@@H](CCCNC(=N)N)C(=O)N2 (cyclo(CHFRWRC[Nle]GHFRWDR); linker 1-7 via X7)
2

###

# experimental-target: Melanocortin receptor 3 (Homo sapiens)
# test-details: Agonist activity at human MC3R expressed in HEK2936E cells assessed as cAMP production in presence of IBMX by time resolved fluorescence assay
*1 amine or outer side, *2 acyl side, *3 side chain or, on linkers, in order; H or OH if unused. Where a SMILES comes first, the peptide text is derived from it. Bridges are numbered along the chain shown (N, C = ends). [ ]: non-standard residue; d: D form. pXylylene = c1cc(C[*:2])ccc1C[*:1]; Nle = CCCC[C@H](N)C(=O)O
recorded-endpoint: EC50 (nM)
Numbers only, in nM.

Request the reported EC50 associated with CCCC[C@@H]1NC(=O)[C@@H]2CSCc3ccc(cc3)CSC[C@H](NC(=O)[C@H](CCCNC(=N)N)NC(=O)[C@H](CC(=O)O)NC(=O)[C@H](Cc3c[nH]c4ccccc34)NC(=O)[C@H](CCCNC(=N)N)NC(=O)[C@H](Cc3ccccc3)NC(=O)[C@H](Cc3cnc[nH]3)NC(=O)CNC1=O)C(=O)N[C@@H](Cc1cnc[nH]1)C(=O)N[C@@H](Cc1ccccc1)C(=O)N[C@@H](CCCNC(=N)N)C(=O)N[C@@H](Cc1c[nH]c3ccccc13)C(=O)N[C@@H](CCCNC(=N)N)C(=O)N2 (cyclo(CHFRWRC[Nle]GHFRWDR); linker 1-7 via pXylylene)
0.331

###

Reported pKi for target or system Melanocortin receptor 4 (Homo sapiens), by entry.
*1 amine or outer side, *2 acyl side, *3 side chain or, on linkers, in order; H or OH if unused. Where a SMILES comes first, the peptide text is derived from it. Bridges are numbered along the chain shown (N, C = ends). [ ]: non-standard residue; d: D form. mXylylene = c1cc(C[*:1])cc(C[*:2])c1; oXylylene = c1ccc(C[*:2])c(C[*:1])c1; pXylylene = c1cc(C[*:2])ccc1C[*:1]; NMeR = CN[C@@H](CCCNC(=N)N)C(=O)O; CH2COCH2 = O=C(C[*:1])C[*:2]; Nle = CCCC[C@H](N)C(=O)O; X7 = C(C[*:1])C[*:2]
Answers are plain numbers, as −log10 of the molar value.

Some compounds with known pKi results, for comparison:
>  <compound>
CC[C@H](C)[C@@H]1NC(=O)[C@@H]2CCCN2C(=O)[C@H](Cc2c[nH]c3ccccc23)NC(=O)[C@H](CCCNC(=N)N)N(C)C(=O)[C@H](Cc2ccccc2)NC(=O)[C@H](Cc2cnc[nH]2)NC(=O)[C@H]([C@@H](C)O)NC(=O)[C@@H](NC(C)=O)CSCc2ccccc2CSC[C@@H](C(N)=O)NC1=O (Ac-CTHF[NMeR]WPIC-NH2; linker 1-9 via oXylylene)

>  <experimental-target>
Melanocortin receptor 4 (Homo sapiens)
Sequence (P32245 whole entry): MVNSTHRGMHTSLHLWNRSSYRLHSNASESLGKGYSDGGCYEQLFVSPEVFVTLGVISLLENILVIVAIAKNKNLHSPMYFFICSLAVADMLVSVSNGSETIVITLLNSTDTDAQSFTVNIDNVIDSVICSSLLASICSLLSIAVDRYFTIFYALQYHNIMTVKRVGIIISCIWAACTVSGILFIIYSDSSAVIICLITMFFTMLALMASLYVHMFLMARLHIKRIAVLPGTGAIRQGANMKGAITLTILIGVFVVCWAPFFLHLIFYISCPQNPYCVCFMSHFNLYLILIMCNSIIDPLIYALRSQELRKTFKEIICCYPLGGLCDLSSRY

>  <pKi>
5.67

$$$$
>  <compound>
CC[C@H](C)[C@@H]1NC(=O)[C@@H]2CCCN2C(=O)[C@H](Cc2c[nH]c3ccccc23)NC(=O)[C@H](CCCNC(=N)N)N(C)C(=O)[C@H](Cc2ccccc2)NC(=O)[C@H](Cc2cnc[nH]2)NC(=O)[C@H]([C@@H](C)O)NC(=O)[C@@H](NC(C)=O)CSCc2ccc(cc2)CSC[C@@H](C(N)=O)NC1=O (Ac-CTHF[NMeR]WPIC-NH2; linker 1-9 via pXylylene)

>  <experimental-target>
Melanocortin receptor 4 (Homo sapiens)

>  <pKi>
6.12

$$$$
>  <compound>
CCCC[C@@H]1NC(=O)[C@@H]2CSCC(=O)CSC[C@H](NC(=O)[C@H](CCCNC(=N)N)NC(=O)[C@H](CC(=O)O)NC(=O)[C@H](Cc3c[nH]c4ccccc34)NC(=O)[C@H](CCCNC(=N)N)NC(=O)[C@H](Cc3ccccc3)NC(=O)[C@H](Cc3cnc[nH]3)NC(=O)CNC1=O)C(=O)N[C@@H](Cc1cnc[nH]1)C(=O)N[C@@H](Cc1ccccc1)C(=O)N[C@@H](CCCNC(=N)N)C(=O)N[C@@H](Cc1c[nH]c3ccccc13)C(=O)N[C@@H](CCCNC(=N)N)C(=O)N2 (cyclo(CHFRWRC[Nle]GHFRWDR); linker 1-7 via CH2COCH2)

>  <experimental-target>
Melanocortin receptor 4 (Homo sapiens)

>  <pKi>
7.36

$$$$

I need pKi for every entry listed below, if you could help.
1. CCCC[C@@H]1NC(=O)[C@@H]2CSSC[C@H](NC(=O)[C@H](CCCNC(=N)N)NC(=O)[C@H](CC(=O)O)NC(=O)[C@H](Cc3c[nH]c4ccccc34)NC(=O)[C@H](CCCNC(=N)N)NC(=O)[C@H](Cc3ccccc3)NC(=O)[C@H](Cc3cnc[nH]3)NC(=O)CNC1=O)C(=O)N[C@@H](Cc1cnc[nH]1)C(=O)N[C@@H](Cc1ccccc1)C(=O)N[C@@H](CCCNC(=N)N)C(=O)N[C@@H](Cc1c[nH]c3ccccc13)C(=O)N[C@@H](CCCNC(=N)N)C(=O)N2 (cyclo(CHFRWRC[Nle]GHFRWDR); disulfide 1-7)
2. CC[C@H](C)[C@@H]1NC(=O)[C@@H]2CCCN2C(=O)[C@H](Cc2c[nH]c3ccccc23)NC(=O)[C@H](CCCNC(=N)N)N(C)C(=O)[C@H](Cc2ccccc2)NC(=O)[C@H](Cc2cnc[nH]2)NC(=O)[C@H]([C@@H](C)O)NC(=O)[C@@H](NC(C)=O)CSCc2cccc(c2)CSC[C@@H](C(N)=O)NC1=O (Ac-CTHF[NMeR]WPIC-NH2; linker 1-9 via mXylylene)
3. CCCC[C@@H]1NC(=O)[C@@H]2CSCCCSC[C@H](NC(=O)[C@H](CCCNC(=N)N)NC(=O)[C@H](CC(=O)O)NC(=O)[C@H](Cc3c[nH]c4ccccc34)NC(=O)[C@H](CCCNC(=N)N)NC(=O)[C@H](Cc3ccccc3)NC(=O)[C@H](Cc3cnc[nH]3)NC(=O)CNC1=O)C(=O)N[C@@H](Cc1cnc[nH]1)C(=O)N[C@@H](Cc1ccccc1)C(=O)N[C@@H](CCCNC(=N)N)C(=O)N[C@@H](Cc1c[nH]c3ccccc13)C(=O)N[C@@H](CCCNC(=N)N)C(=O)N2 (cyclo(CHFRWRC[Nle]GHFRWDR); linker 1-7 via X7)

7.09
5.89
7.35

###

# experimental-target: Melanocortin receptor 3 (Homo sapiens)
*1 amine or outer side, *2 acyl side, *3 side chain or, on linkers, in order; H or OH if unused. Where a SMILES comes first, the peptide text is derived from it. Bridges are numbered along the chain shown (N, C = ends). [ ]: non-standard residue; d: D form. X3 = NC(=O)/C(=C(\C(=O)O)[*:2])[*:1]; pXylylene = c1cc(C[*:2])ccc1C[*:1]; NMeR = CN[C@@H](CCCNC(=N)N)C(=O)O; Nle = CCCC[C@H](N)C(=O)O
recorded-endpoint: pKi
One number for each entry, as −log10 of the molar value.

>  <compound>
CC[C@H](C)[C@@H]1NC(=O)[C@@H]2CCCN2C(=O)[C@H](Cc2c[nH]c3ccccc23)NC(=O)[C@H](CCCNC(=N)N)N(C)C(=O)[C@H](Cc2ccccc2)NC(=O)[C@H](Cc2cnc[nH]2)NC(=O)[C@H]([C@@H](C)O)NC(=O)[C@@H](NC(C)=O)CSCc2ccc(cc2)CSC[C@@H](C(N)=O)NC1=O (Ac-CTHF[NMeR]WPIC-NH2; linker 1-9 via pXylylene)

>  <pKi>
5.01

$$$$

Consider now this further compound.
Request the reported pKi associated with CCCC[C@@H]1NC(=O)[C@@H]2CS/C(C(=O)O)=C(/C(N)=O)SC[C@H](NC(=O)[C@H](CCCNC(=N)N)NC(=O)[C@H](CC(=O)O)NC(=O)[C@H](Cc3c[nH]c4ccccc34)NC(=O)[C@H](CCCNC(=N)N)NC(=O)[C@H](Cc3ccccc3)NC(=O)[C@H](Cc3cnc[nH]3)NC(=O)CNC1=O)C(=O)N[C@@H](Cc1cnc[nH]1)C(=O)N[C@@H](Cc1ccccc1)C(=O)N[C@@H](CCCNC(=N)N)C(=O)N[C@@H](Cc1c[nH]c3ccccc13)C(=O)N[C@@H](CCCNC(=N)N)C(=O)N2 (cyclo(CHFRWRC[Nle]GHFRWDR); linker 1-7 via X3)
6.53

Every entry's value here was drawn from ChEMBL document CHEMBL5104192.
